Data origin, for the record: patent US20180334447A1

- assayed.target: recombinant BACE1 protein (Homo sapiens, UniProt P56817)
- Construct: recombinant BACE1 protein in a final concentration of 1 μg/ml
- Sequence (P56817 46-501): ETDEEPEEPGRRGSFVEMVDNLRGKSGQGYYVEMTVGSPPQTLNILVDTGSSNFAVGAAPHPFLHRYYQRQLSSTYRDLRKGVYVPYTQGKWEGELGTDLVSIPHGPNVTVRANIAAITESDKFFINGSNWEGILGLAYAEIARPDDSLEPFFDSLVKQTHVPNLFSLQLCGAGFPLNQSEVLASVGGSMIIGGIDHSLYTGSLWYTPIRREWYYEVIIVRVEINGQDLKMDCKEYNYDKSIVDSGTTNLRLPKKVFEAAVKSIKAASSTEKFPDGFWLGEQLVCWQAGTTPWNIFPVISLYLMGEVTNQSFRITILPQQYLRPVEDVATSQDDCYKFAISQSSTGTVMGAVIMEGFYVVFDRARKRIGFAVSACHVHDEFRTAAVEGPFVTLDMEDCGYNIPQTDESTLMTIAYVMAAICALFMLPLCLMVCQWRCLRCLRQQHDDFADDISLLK
- protocol: BACE1 biochemical FRET based assay - Method 1
- conditions.used: BACE1, 120 minutes at room temperature, pH 5.0; read-out: Biochemical FRET based assay - Method 1 pIC50 (converted)
IC50 values for the molecules below.
State the answer as a number, implicitly in nM.

CC1(S(C)(=O)=O)CCC(CF)(c2cc(NC(=O)c3cnc(OCC(F)(F)F)cn3)ccc2F)N=C1N (stereo not shown) [Compound 39] :: 1.29
Cc1nc(C(=O)Nc2ccc(F)c(C3(CF)CCC(C)(S(C)(=O)=O)C(N)=N3)c2)co1 (stereo not shown) [Compound 40] :: 4.57
CC[C@]1(S(C)(=O)=O)CC[C@@](CF)(c2cc(NC(=O)c3ccc(F)cn3)ccc2F)N=C1N [Compound 29a] :: 871

Tell me IC50 reported for COc1cnc(C(=O)Nc2ccc(F)c([C@@]3(C)N=C(N)[C@](C)(C#N)C[C@]3(C)F)c2)cn1 [Compound 27]
41.7

###

- assayed.target: recombinant BACE2 protein (Homo sapiens)
- Construct: recombinant BACE2 protein in a final concentration of 0.4 μg/ml
- Sequence (Q9Y5Z0 63-518): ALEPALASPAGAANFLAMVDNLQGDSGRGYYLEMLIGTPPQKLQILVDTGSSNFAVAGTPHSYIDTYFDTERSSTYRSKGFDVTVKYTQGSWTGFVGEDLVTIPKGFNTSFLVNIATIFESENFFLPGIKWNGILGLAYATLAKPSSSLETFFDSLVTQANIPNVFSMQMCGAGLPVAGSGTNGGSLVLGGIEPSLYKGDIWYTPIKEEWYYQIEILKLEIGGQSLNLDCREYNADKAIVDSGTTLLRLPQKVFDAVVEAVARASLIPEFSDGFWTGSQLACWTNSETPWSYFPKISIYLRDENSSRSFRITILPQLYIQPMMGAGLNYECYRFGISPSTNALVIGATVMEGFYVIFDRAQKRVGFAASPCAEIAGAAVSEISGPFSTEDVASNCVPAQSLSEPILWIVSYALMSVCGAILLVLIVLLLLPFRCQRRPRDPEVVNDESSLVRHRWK
- protocol: BACE2 biochemical FRET based assay
- conditions.used: BACE2, 450 minutes at room temperature, pH 5.0; read-out: Biochemical FRET based assay pIC50 (converted)
- From the text: This assay is a Fluorescence Resonance Energy Transfer Assay (FRET) based assay. The substrate for this assay contains the ‘Swedish’ Lys-Met/Asn-Leu mutation of the amyloid precursor protein (APP) beta-secretase cleavage site. […] Upon cleavage by the beta-secretase, the fluorophore Mca is separated from the quenching group Dnp, restoring the full fluorescence yield of the donor. The increase in fluorescence is linearly related to the rate of proteolysis. […]
IC50 values for the compounds below.

COc1cnc(C(=O)Nc2ccc(F)c([C@]3(CF)CC[C@](C)(S(C)(=O)=O)C(N)=N3)c2)cn1 :: > 10 µM

Specify IC50 for COc1cnc(C(=O)Nc2ccc(F)c([C@@]3(C(F)F)CC[C@@](C)(C#N)C(N)=N3)c2)cn1 , system recombinant BACE2 protein (Homo sapiens).
> 10 µM

Specify IC50 for COc1cnc(C(=O)Nc2ccc(F)c([C@@]3(C)N=C(N)[C@@](C)(S(C)(=O)=O)C[C@@H]3F)c2)cn1 , system recombinant BACE2 protein (Homo sapiens).
> 10 µM
